target: PH0208-C135S mutant protein (Pyrococcus horikoshii, UniProt O57947, C135S); construct: an N-terminal α-helical domain (residues 1–122) and a C-terminal α-β-α sandwich domain (residues 123–324); made in house; host or cells: Escherichia coli Rosetta (DE3); test: biochemical; type: binding, Pyrococcus horikoshii OT3; conditions: ITC, 25 °C; read-out: Kd
Sequence (O57947 whole entry C135S, the tested form may be a part): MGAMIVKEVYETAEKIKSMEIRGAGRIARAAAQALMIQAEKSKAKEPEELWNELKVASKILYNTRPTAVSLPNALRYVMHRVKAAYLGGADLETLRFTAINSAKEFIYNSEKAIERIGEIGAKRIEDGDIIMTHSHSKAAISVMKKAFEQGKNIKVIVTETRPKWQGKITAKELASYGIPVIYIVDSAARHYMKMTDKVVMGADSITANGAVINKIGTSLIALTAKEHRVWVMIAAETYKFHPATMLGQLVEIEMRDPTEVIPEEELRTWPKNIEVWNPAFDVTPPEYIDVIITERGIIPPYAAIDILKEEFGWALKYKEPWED
pKd: −log10 of the molar value.
quantity-measured: pKd

{"columns": ["compound", "result-number"],
 "data": [
  ["O=P(O)(O)OC[C@H]1OC(OP(=O)(O)O)[C@H](O)[C@@H]1O (stereo partly shown) [R15P, ribose-1,5-bisphosphate]", 4.86]
]}
